- Assay Name: binders of r(CAG) RNA repeats, primary screen, biochemical, fluorescence (AID 651821);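 further: 0% = DMSO alone and 100% = 100 µM mitoxantrone as full dye displacement; higher means more dye released from RNA so lower well fluorescence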
- Condition Summary: r(CAG) RNA repeat, TO-PRO-1 dye displacement fluorescence; at 3 µM; active compounds read high
Hit rate of the full screen: of about 370,000 compounds, about 4,700 (1.3%) were called active. Many of the other results were omitted from the sample, so actives are more common in it than they were.
Metric Name: inhibition (%)

{"Molecule": "COc1ccc(S[C@]2(C(=O)N(C)C)CC(=O)N(c3ccc(OC)cc3)[C@@H]2c2ccc(OC)cc2)cc1", "Units Of Measure": "%", "Value Observed": 2.57}
{"Molecule": "O=C(CN1C(=O)NC(Cc2c[nH]c3ccccc23)C1=O)Nc1ccccc1C(F)(F)F (centres undefined)", "Units Of Measure": "%", "Value Observed": 2.5}
{"Molecule": "Clc1ccc(C(Cn2ccnc2)OCc2ccsc2Cl)c(Cl)c1 (centres undefined)", "Units Of Measure": "%", "Value Observed": 2.12}
{"Molecule": "CCCCCN1CCCCC(NC(=O)C(C)CCC)C1=O (centres undefined)", "Units Of Measure": "%", "Value Observed": -0.91}

====

- Assay Name: binders of r(CAG) RNA repeats, primary screen, biochemical, fluorescence (AID 651821);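 further: 0% = DMSO alone and 100% = 100 µM mitoxantrone as full dye displacement; higher means more dye released from RNA so lower well fluorescence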
- Condition Summary: r(CAG) RNA repeat, TO-PRO-1 dye displacement fluorescence; at 3 µM; active compounds read high
Screen size: about 370,000 compounds; about 4,700 (1.3%) were called active. The full list was thinned out, with actives kept by preference.

{"Molecule": "CN(C)S(=O)(=O)c1cccc(-c2nn(-c3ccccc3)cc2/C=C2\\SC(=S)N(CC(=O)O)C2=O)c1", "inhibition, %": 63.9}
{"Molecule": "COc1ccc(CN2C(=O)N3Cc4cc(OC)ccc4C3CS2(=O)=O)cc1 (stereo not drawn)", "inhibition, %": 1.88}
{"Molecule": "CC(C)N1CCCCC(NC(=O)C(C)(C)C)C1=O (stereo not drawn)", "inhibition, %": 0.73}
{"Molecule": "COc1ccc(OC)c(NC(=O)CSc2nc(-c3ccccc3)cc(=O)[nH]2)c1", "inhibition, %": 37.5}
{"Molecule": "COc1ccc(-n2c(COc3ccccc3)nnc2SCC(=O)Nc2ccc3c(c2)OCO3)cc1", "inhibition, %": 3.35}
{"Molecule": "COc1ccccc1CCNC(=O)C1CCN(C(=O)/C=C/c2ccccc2)CC1", "inhibition, %": -7.33}
{"Molecule": "Clc1ccc(-n2c(SC/C=C/c3ccccc3)nnc2-c2ccco2)cc1", "inhibition, %": 2.56}
{"Molecule": "COc1ccc(CN2C(=O)C(C)S/C2=N/N=C/c2ccco2)cc1 (stereo not drawn)", "inhibition, %": 0.84}
{"Molecule": "COc1ccc(CNC(=O)COC(=O)C(CCSC)N2C(=O)c3ccccc3C2=O)cc1 (stereo not drawn)", "inhibition, %": 3.76}
{"Molecule": "Cc1nc(C)c(-c2nnc(-c3cccc(S(=O)(=O)N(C)C)c3)o2)cc1C(=O)NN", "inhibition, %": 10.6}
{"Molecule": "COc1ccc(C(=O)/C=C/c2ccc(-c3ccccc3)cc2)cc1CSCC(=O)O", "inhibition, %": 63.2}
{"Molecule": "O=C(CSc1nnc(COc2ccccc2)n1Cc1ccco1)c1ccc2ccccc2c1", "inhibition, %": 10.1}
{"Molecule": "CCOc1ccc(/C=C/C(=O)N(CC)CC(=O)NCc2cccs2)cc1OC", "inhibition, %": -8.5}
{"Molecule": "Cc1ccc(-n2c(SCC(=O)Nc3cccc4ccccc34)nnc2-c2ccccn2)cc1", "inhibition, %": 3.79}
{"Molecule": "COP(=O)(O)CNC(=O)OCc1ccccc1", "inhibition, %": 3.7}
{"Molecule": "CC(=NNC(N)=O)c1ccc(Cl)c(-n2cccc2)c1", "inhibition, %": 1.94}
{"Molecule": "COc1ccc(OC)c(NC(=O)CSc2nc(N)c(-c3ccccc3)c(=O)[nH]2)c1", "inhibition, %": 4.81}
{"Molecule": "Cc1ccc(S(=O)(=O)N2CCN(C(=O)c3ccccc3-c3nc4ccccc4s3)CC2)c(C)c1", "inhibition, %": -1.03}
{"Molecule": "CC(C)(C)c1ccc(CSc2nnc(-c3cccs3)o2)cc1", "inhibition, %": -0.86}
{"Molecule": "CC(NCc1ccco1)C(=O)N1CCCCC1 (stereo not drawn)", "inhibition, %": 2.88}
{"Molecule": "Clc1ccccc1CSc1nnc(-c2ccco2)c(-c2ccco2)n1", "inhibition, %": 54.8}
{"Molecule": "COC(=O)[C@]12C[C@H](CC(=O)NCc3cccc4ccccc34)C(=O)N(CCc3ccc(OC)c(OC)c3)C1=C[C@H](C1CCCC1)O[C@@H]2C", "inhibition, %": 6.55}
{"Molecule": "CCCCCCCCN1C(=O)[C@@H](CC(=O)N2CCN(C(=O)OCC)CC2)C[C@@]2(C(=O)OC)C1=C[C@H](C1CCCC1)O[C@@H]2C", "inhibition, %": 5.15}
{"Molecule": "OC(c1ccccc1)c1nc(/C=C/c2ccc(C(F)(F)F)cc2)cs1 (stereo not drawn)", "inhibition, %": 3.22}
{"Molecule": "O=C(OC12CCCN(C1)/C(=C/c1cccnc1)C2)C1CCCC1 (stereo not drawn)", "inhibition, %": -0.17}
{"Molecule": "COCCNC(=O)c1ccc2nc(Cc3ccc(OC)c(OC)c3)oc2c1", "inhibition, %": -4.89}
{"Molecule": "COc1cc(NC(=O)C2=CC(c3ccco3)=NS(=O)(=O)N2C)cc(OC)c1OC", "inhibition, %": 1.85}
{"Molecule": "Cc1cc(NC(=O)COC(=O)/C=C/c2ccc(C)o2)no1", "inhibition, %": -0.62}
{"Molecule": "COc1ccc(NC(=O)N(C)C[C@@H]2OCCCC[C@@H](C)Oc3ccc(NC(=O)NC4CCCCC4)cc3C(=O)N([C@H](C)CO)C[C@@H]2C)cc1", "inhibition, %": 10}
{"Molecule": "CCC(C(=O)Nc1ncccn1)(C(F)(F)F)C(F)(F)F", "inhibition, %": -0.05}
{"Molecule": "CCOc1cc(/C=C(\\C#N)c2nc(-c3cccs3)c(NC(C)=O)s2)ccc1O", "inhibition, %": 37.7}
{"Molecule": "COC(=O)c1ccc(CN2C(=O)[C@]3(OCCC=C[C@H]3C)c3c(Br)cccc32)cc1", "inhibition, %": 0.13}
{"Molecule": "COc1cc(/C=C/C(=O)OCC(=O)NC(=O)NCc2ccccc2)ccc1OCC#N", "inhibition, %": -3.56}

====

- Assay Name: binders of r(CAG) RNA repeats, primary screen, biochemical, fluorescence (AID 651821);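 further: 0% = DMSO alone and 100% = 100 µM mitoxantrone as full dye displacement; higher means more dye released from RNA so lower well fluorescence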
- Condition Summary: r(CAG) RNA repeat, TO-PRO-1 dye displacement fluorescence; at 3 µM; active compounds read high
The campaign covered roughly 370,000 compounds. About 4,700 (1.3%) were called active. This is one part of a sample in which actives are shown more often than they occur.
Measured inhibition by item

{"Molecule": "O=C(Nc1ccccc1C(=O)O)c1ccc(N2C(=O)C3CC=CCC3C2=O)cc1 (stereo unspecified)", "inhibition": "13.8% (inactive)"}
{"Molecule": "CC(C)CNc1cccc2c1S(=O)(=O)N[C@H](CC(C)C)CO2", "inhibition": "-1.29% (inactive)"}
{"Molecule": "O=C(COC(=O)c1ccc2ncsc2c1)Nc1ccc(Cl)cc1", "inhibition": "7.21% (inactive)"}
{"Molecule": "CCN(CC(=O)Nc1c(F)cccc1F)C(=O)CN1c2cccc3cccc(c23)S1(=O)=O", "inhibition": "-4.19% (inactive)"}
{"Molecule": "O=C(COC(=O)c1ccc(NS(=O)(=O)c2cccs2)cc1O)Nc1ccc(F)cc1", "inhibition": "43.1% (active)"}
{"Molecule": "CCc1ccc(NC(=O)CCNS(=O)(=O)c2cccs2)cc1", "inhibition": "-0.02% (inactive)"}
{"Molecule": "O=C(NCc1ccccc1)[C@H]1CCCN1C(=O)[C@H]1CCCN1C(=O)N1CCOCC1", "inhibition": "-0.04% (inactive)"}
{"Molecule": "COc1ccccc1-c1nnc(NC(=O)c2ccc3ncsc3c2)o1", "inhibition": "10.6% (inactive)"}
{"Molecule": "CNC(=O)COc1ccc(S(=O)(=O)Nc2ccccc2)cc1", "inhibition": "0.86% (inactive)"}
{"Molecule": "O=C(NNc1c2ccccc2nc2ccccc12)c1cc2ccccc2cc1O", "inhibition": "49.2% (active)"}
{"Molecule": "O=C(Nc1cccc(F)c1)c1cc(-c2ccco2)nc2ccccc12", "inhibition": "35% (active)"}
{"Molecule": "Cc1ccc(SC(CC(=O)c2ccc(C(C)(C)C)cc2)C(=O)O)cc1 (stereo unspecified)", "inhibition": "42.9% (active)"}
{"Molecule": "CCOc1ccccc1NS(=O)(=O)c1c[nH]c(C(=O)OC)c1", "inhibition": "-0.7% (inactive)"}
{"Molecule": "CC(=O)Nc1ccc(CN2CCC(Oc3ccc(C(=O)N4CCCC4)cc3)CC2)cc1", "inhibition": "-7.88% (inactive)"}
{"Molecule": "CC1CCN(C(=O)c2ccccc2NC(=O)Cc2ccccc2)CC1", "inhibition": "-6.63% (inactive)"}
{"Molecule": "Cc1ccc(S(=O)(=O)N[C@H](CO)C(C)C)cc1", "inhibition": "2.22% (inactive)"}
{"Molecule": "O=C(Nc1cccc(F)c1)c1coc(=O)c(Br)c1", "inhibition": "1.62% (inactive)"}
{"Molecule": "COc1ccc(NC(=O)CSCc2ccc([N+](=O)[O-])cc2)cc1OC", "inhibition": "-1.63% (inactive)"}
{"Molecule": "CCN(CC(=O)NCc1cccs1)C(=O)c1cccc(S(=O)(=O)Nc2ccccc2OC)c1", "inhibition": "-2.88% (inactive)"}
{"Molecule": "N#Cc1ccccc1OC[C@@H](O)CN1CCC(C(O)(c2ccccc2)c2ccccc2)CC1", "inhibition": "2.31% (inactive)"}
{"Molecule": "Cc1ccc(NS(=O)(=O)c2ccc(N/N=C/c3ccccc3OCC(=O)O)c([N+](=O)[O-])c2)c(C)c1", "inhibition": "86.9% (active)"}
{"Molecule": "Nc1nc2c(ncn2[C@@H]2O[C@H](C(=O)N[C@@H](Cc3ccccc3)C(=O)NCc3ccccc3)[C@@H](O)[C@H]2O)c(=O)[nH]1", "inhibition": "3.57% (inactive)"}
{"Molecule": "O=C1CCCCC1C(=O)c1ccccc1 (stereo unspecified)", "inhibition": "-0.64% (inactive)"}
{"Molecule": "COc1ccc(N(CC(=O)Nc2ccc(C)cc2C)S(=O)(=O)c2ccccc2[N+](=O)[O-])c(OC)c1", "inhibition": "7.1% (inactive)"}
{"Molecule": "Cc1ccc(SC(C)C(=O)NCc2ccc(F)cc2)cc1 (stereo unspecified)", "inhibition": "-0.76% (inactive)"}
{"Molecule": "O=C(O)c1ccccc1/C=N/Nc1ccc(S(=O)(=O)Nc2ccc(Cl)cc2)cc1[N+](=O)[O-]", "inhibition": "67% (active)"}
{"Molecule": "O=C(COC(=O)c1ccc(O)cc1O)NNC(=O)c1cccs1", "inhibition": "1.41% (inactive)"}
{"Molecule": "Cc1ccc(OCc2nnc(SC/C=C/c3ccccc3)n2Cc2ccco2)cc1", "inhibition": "5.16% (inactive)"}
{"Molecule": "O=C(CSCc1ccc([N+](=O)[O-])cc1)NCCSCc1ccccc1", "inhibition": "-2.49% (inactive)"}
{"Molecule": "OC(c1ccccc1)(c1ccccc1)C1CCN(CCCOc2ccc(-c3ccsc3)cc2)CC1", "inhibition": "9.5% (inactive)"}
{"Molecule": "COc1ccc(S(=O)(=O)/N=C2\\C=C(NS(=O)(=O)c3ccccc3)C(=O)c3ccccc32)cc1", "inhibition": "63.6% (active)"}
{"Molecule": "COC(=O)[C@]12C[C@H](CC(=O)NCc3ccccc3)C(=O)N(Cc3ccccc3)C1=C[C@H](COCc1ccccc1)O[C@@H]2C", "inhibition": "8.61% (inactive)"}
{"Molecule": "Cc1ccc(S(=O)(=O)/N=C2\\C=C(NS(=O)(=O)c3ccc(C)cc3)C(=O)c3ccccc32)cc1", "inhibition": "59.4% (active)"}
{"Molecule": "COc1ccc(Br)cc1/C=N/Nc1ccc(S(=O)(=O)Nc2ccccc2C(=O)O)cc1[N+](=O)[O-]", "inhibition": "70.1% (active)"}
{"Molecule": "Cc1cc(C(=O)Nc2ccc(C)c(S(=O)(=O)N3CCOCC3)c2)c2ccccc2n1", "inhibition": "5.4% (inactive)"}
{"Molecule": "COc1ccc(C(=O)C(C)OC(=O)c2cccc(S(=O)(=O)Nc3c(C)n(C)n(-c4ccccc4)c3=O)c2)cc1 (stereo unspecified)", "inhibition": "7.06% (inactive)"}
